compounds and their reported IC50
target under test: Cys-TrxR (recombinant E. coli thioredoxin reductase) (Escherichia coli, UniProt P0A9P4)
Sequence (P0A9P4 2-321): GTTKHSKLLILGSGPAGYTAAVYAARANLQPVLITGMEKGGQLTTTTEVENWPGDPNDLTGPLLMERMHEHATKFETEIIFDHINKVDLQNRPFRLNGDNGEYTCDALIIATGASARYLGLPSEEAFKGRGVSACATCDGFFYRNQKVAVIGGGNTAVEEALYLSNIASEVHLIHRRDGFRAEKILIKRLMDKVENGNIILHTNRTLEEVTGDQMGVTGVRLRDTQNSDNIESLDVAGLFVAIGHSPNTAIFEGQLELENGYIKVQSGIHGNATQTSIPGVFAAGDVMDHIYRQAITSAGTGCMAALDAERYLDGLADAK
assay summary: Trx-dependent reduction assay
Format: biochemical
measure name: IC50 (µM)

N#C[Se]O : 4.3
N#CSO : 9.3
